- Target of assay: Chk1 (Homo sapiens, UniProt O14757)
- Construct: purchased Upstate Biotechnology
- Sequence (O14757 whole entry): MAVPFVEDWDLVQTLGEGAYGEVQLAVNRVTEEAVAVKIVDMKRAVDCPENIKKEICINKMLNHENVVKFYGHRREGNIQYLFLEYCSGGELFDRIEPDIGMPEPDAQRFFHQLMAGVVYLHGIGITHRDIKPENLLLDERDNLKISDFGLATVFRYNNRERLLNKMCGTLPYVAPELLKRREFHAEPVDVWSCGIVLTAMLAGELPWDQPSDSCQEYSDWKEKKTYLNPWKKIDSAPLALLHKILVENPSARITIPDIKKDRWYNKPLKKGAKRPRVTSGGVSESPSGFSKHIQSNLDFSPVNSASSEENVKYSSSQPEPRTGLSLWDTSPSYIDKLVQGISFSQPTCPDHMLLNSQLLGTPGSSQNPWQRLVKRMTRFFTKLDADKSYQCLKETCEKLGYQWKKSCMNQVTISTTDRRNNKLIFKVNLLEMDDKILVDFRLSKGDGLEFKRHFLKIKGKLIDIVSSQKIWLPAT
- Protocol details: Chk1 kinase assay: incorporation of γ-33P ATP into immobilized myelin basic protein
- Assay type: biochemical
- Experimental conditions: Table 11, Chk1 only; class symbols A-D; read-out: Chk1 IC50

{"Smiles repr": "Nc1ncc(-c2cccc(S(=O)(=O)N[C@@H]3CCc4ccccc43)c2)nc1C(=O)N[C@H]1CCNC1", "IC50": "50 to 1000 nM"}
{"Smiles repr": "Nc1ncc(-c2cccc(C(=O)NCc3ccc(OC(F)(F)F)cc3)c2)nc1C(=O)N[C@H]1CCCNC1", "IC50": "< 50 nM"}
{"Smiles repr": "Nc1ncc(-c2cccc(C(=O)NCc3cc(F)c(F)c(F)c3)c2)nc1C(=O)N[C@H]1CCCNC1", "IC50": "< 50 nM"}
{"Smiles repr": "Nc1ncc(-c2cccc(NC(=O)Cc3ccc(F)cc3Cl)c2)nc1C(=O)N[C@H]1CCCNC1", "IC50": "< 50 nM"}

###

Measured pIC50 values are reported for all entries that follow.
- Target of assay: Chk1 (Homo sapiens, UniProt O14757)
- Construct: purchased Upstate Biotechnology
- Protocol details: Chk1 kinase assay: incorporation of γ-33P ATP into immobilized myelin basic protein
- Type: biochemical
- Experimental conditions: read-out: Chk1 IC50
- Description: Chk1 and Chk2 assays were performed by measuring incorporation of γ-^33P ATP into immobilized myelin basic protein (MBP). […] Each data point was measured in duplicate, and at least two duplicate assays were performed for each individual compound determination. […] The above assay procedure can be used to determine the IC50 for inhibition and/or the inhibition constant Ki. […] The Ki for a compound may be determined from the IC50 based on three assumptions. […]
pIC50: −log10 of the molar value.

{"Smiles repr": "CNC(=O)c1nc(-c2ccc(N(C)C)cc2)cnc1N", "pIC50": "5.00 to 6.00"}
{"Smiles repr": "CNC(=O)c1nc(-c2cccc(C(=O)NCc3ccccc3C)c2)cnc1N", "pIC50": "6.00 to 7.30"}
{"Smiles repr": "CNC(=O)c1nc(-c2cccc(C(=O)N[C@@H]3c4ccccc4C[C@@H]3O)c2)cnc1N", "pIC50": "6.00 to 7.30"}
{"Smiles repr": "CNC(=O)c1nc(-c2cccc(OCCN(C)Cc3ccccc3)c2)cnc1N", "pIC50": "6.00 to 7.30"}
{"Smiles repr": "CNC(=O)c1nc(-c2cccc(C(=O)NCc3ccccc3-c3ccccc3)c2)cnc1N", "pIC50": "> 7.30"}
{"Smiles repr": "CNC(=O)c1nc(-c2cccc(NC(=O)Nc3cccc(-c4cnc(N)c(C(=O)NC)n4)c3)c2)cnc1N", "pIC50": "> 7.30"}
{"Smiles repr": "CNC(=O)c1nc(-c2cccc(C(=O)N[C@@H]3CCN(C(=O)OC(C)(C)C)C3)c2)cnc1N", "pIC50": "5.00 to 6.00"}
{"Smiles repr": "CNC(=O)c1nc(-c2cccc(NC(=O)OCc3ccccc3)c2)cnc1N", "pIC50": "6.00 to 7.30"}

###

Measured pIC50 values are reported for all entries that follow.
- Target of assay: Chk1 (Homo sapiens, UniProt O14757)
- Construct: purchased Upstate Biotechnology
- Protocol details: Chk1 kinase assay: incorporation of γ-33P ATP into immobilized myelin basic protein
- Assay type: biochemical
- Experimental conditions: read-out: Chk1 IC50
pIC50: −log10 of the molar value.

{"Compound": "CNC(=O)c1nc(-c2cccc(C(=O)NCc3c(Cl)cc(Cl)cc3Cl)c2)cnc1N", "pIC50": "6.00 to 7.30"}
{"Compound": "CNC(=O)c1nc(-c2cccc(CN[C@H](C)c3ccccc3)c2)cnc1N", "pIC50": "6.00 to 7.30"}
{"Compound": "CCCNc1ncc(-c2ccccc2)nc1C(N)=O", "pIC50": "≤ 5.00"}
{"Compound": "CNC(=O)c1nc(-c2cccc(NC(=O)c3ccc(OC)cc3)c2)cnc1N", "pIC50": "6.00 to 7.30"}
{"Compound": "CNC(=O)c1nc(-c2cccc(C(=O)NCc3ccccc3OC)c2)cnc1N", "pIC50": "6.00 to 7.30"}
{"Compound": "CNC(=O)c1nc(-c2cccs2)cnc1N", "pIC50": "6.00 to 7.30"}
{"Compound": "CNC(=O)c1nc(-c2cccc(C(=O)NCC3CCCN3Cc3ccccc3)c2)cnc1N (stereo not drawn)", "pIC50": "6.00 to 7.30"}
{"Compound": "CNC(=O)c1nc(-c2cccc(C(=O)NCc3cc(F)cc(F)c3)c2)cnc1N", "pIC50": "> 7.30"}
{"Compound": "CNC(=O)c1nc(-c2cccc(C(=O)NCc3cccc(-c4ccccc4)c3)c2)cnc1N", "pIC50": "6.00 to 7.30"}
{"Compound": "CNC(=O)c1nc(-c2cccc(C(=O)NCc3ccccc3N3CCOCC3)c2)cnc1N", "pIC50": "6.00 to 7.30"}
{"Compound": "CNC(=O)c1nc(-c2cccc(C(=O)N(C)C)c2)cnc1N", "pIC50": "5.00 to 6.00"}
{"Compound": "CNC(=O)c1nc(-c2cccc(CNC(=O)c3ncccc3O)c2)cnc1N", "pIC50": "6.00 to 7.30"}
{"Compound": "CNC(=O)c1nc(-c2cccc(C(=O)NCc3cccc(Cl)c3)c2)cnc1N", "pIC50": "6.00 to 7.30"}
{"Compound": "CNC(=O)c1nc(-c2cccc(C(=O)NCc3c(N)cccc3F)c2)cnc1N", "pIC50": "6.00 to 7.30"}
{"Compound": "CNC(=O)c1nc(-c2cccc(CNC(=O)c3cc(C(F)(F)F)ccc3Cl)c2)cnc1N", "pIC50": "6.00 to 7.30"}
{"Compound": "CNC(=O)c1nc(-c2cccc(C(=O)N[C@@H]3CCN(Cc4cccc(OC)c4)C3)c2)cnc1NCc1cccc(OC)c1", "pIC50": "6.00 to 7.30"}
{"Compound": "CNC(=O)c1nc(-c2cccc(C(=O)NNc3ccccc3)c2)cnc1N", "pIC50": "> 7.30"}
{"Compound": "CNC(=O)c1nc(-c2cccc(C(=O)NCCc3ccccc3)c2)cnc1N", "pIC50": "6.00 to 7.30"}
{"Compound": "CNC(=O)c1nc(-c2cccc(C(=O)NCc3cc(F)cc4c3OCOC4)c2)cnc1N", "pIC50": "6.00 to 7.30"}
{"Compound": "CNC(=O)c1nc(-c2cccc(CNCc3cccc(F)c3F)c2)cnc1N", "pIC50": "6.00 to 7.30"}
{"Compound": "CNC(=O)c1nc(-c2cccc(C(=O)NCc3ccc(C(C)C)cc3)c2)cnc1N", "pIC50": "6.00 to 7.30"}
{"Compound": "CNC(=O)c1nc(-c2ccsc2)cnc1N", "pIC50": "6.00 to 7.30"}
{"Compound": "CNC(=O)c1nc(-c2noc(CCc3ccccc3)n2)cnc1N", "pIC50": "≤ 5.00"}
{"Compound": "CNC(=O)c1nc(-c2cccc(OCCN3CCN(CCO)CC3)c2)cnc1N", "pIC50": "6.00 to 7.30"}
{"Compound": "CNC(=O)c1nc(-c2cccc(CNC(=O)c3ccc(I)cc3)c2)cnc1N", "pIC50": "> 7.30"}
{"Compound": "CNC(=O)c1nc(-c2cccc(C(=O)NCc3ccccc3Br)c2)cnc1N", "pIC50": "6.00 to 7.30"}
{"Compound": "CNC(=O)c1nc(-c2cccc(C(=O)NCc3ccc(C)c(C)c3)c2)cnc1N", "pIC50": "6.00 to 7.30"}
{"Compound": "CNC(=O)c1nc(-c2cccc(C(=O)NCc3cccc(C)c3C)c2)cnc1N", "pIC50": "6.00 to 7.30"}
{"Compound": "CNC(=O)c1nc(-c2ccc(CO)cc2)cnc1N", "pIC50": "5.00 to 6.00"}
{"Compound": "CNC(=O)c1nc(-c2cccc(NC(=O)Nc3ccc(F)cc3)c2)cnc1N", "pIC50": "6.00 to 7.30"}
{"Compound": "CNC(=O)c1nc(-c2cccc(C(=O)NCc3cc(C)cc(C)c3)c2)cnc1N", "pIC50": "6.00 to 7.30"}
{"Compound": "CNC(=O)c1nc(-c2cccc(C(=O)NCc3cnc(C)cn3)c2)cnc1N", "pIC50": "5.00 to 6.00"}
{"Compound": "CNC(=O)c1nc(-c2cccc(OCCN3CCC(C)CC3)c2)cnc1N", "pIC50": "5.00 to 6.00"}
{"Compound": "CNC(=O)c1nc(-c2cccc(C(=O)NCCOc3ccccc3)c2)cnc1N", "pIC50": "6.00 to 7.30"}
{"Compound": "CNC(=O)c1nc(-c2cncc(C(=O)NCc3ccccc3)c2)cnc1N", "pIC50": "6.00 to 7.30"}
{"Compound": "CNC(=O)c1nc(-c2cccc(CNCc3ccc(Oc4ccccc4)cc3)c2)cnc1N", "pIC50": "6.00 to 7.30"}
